Tested on: PF3D7_0420300 AP2 domain 1 (GST-tagged)
Assay: gcPBM binding intensity (ln(normalized median fluorescence intensity)); higher = stronger DNA binding
In all, about 25,000 sequences were measured (“ln(normalized median fluorescence intensity)”: median about 9.3, highest 2% from about 10 on). The entries come from a sample that favours the highest values as a whole.
measured-attribute: gcPBM binding intensity (ln)

Bench note, PF3D7_0420300 AP2 domain 1 (GST-tagged): TATACACGCGGACACACACACACACGCAAAAAAAAA [CACACA_site6377] , gcPBM binding intensity (ln) reads 10.1

Bench note, PF3D7_0420300 AP2 domain 1 (GST-tagged): ACATATTCATATGGAAGTACGATAATGTAGTCATAT [XGTACX_site7080] , gcPBM binding intensity (ln) reads 9.37

Bench note, PF3D7_0420300 AP2 domain 1 (GST-tagged): AGTATACATATATATACACACACATATATATATATA [CACACA_site7883] , gcPBM binding intensity (ln) reads 9.61

Bench note, PF3D7_0420300 AP2 domain 1 (GST-tagged): AGTATACTCGGACACACACACACATATATATATATA [CACACA_site5031] , gcPBM binding intensity (ln) reads 10.2

Bench note, PF3D7_0420300 AP2 domain 1 (GST-tagged): TATACGCATATATACACACACATATATATATATATA [CACACA_site3416] , gcPBM binding intensity (ln) reads 9.66

Bench note, PF3D7_0420300 AP2 domain 1 (GST-tagged): TAATAAAAGATATATACACACAAATAAATAAATAAA [CACACA_site7818] , gcPBM binding intensity (ln) reads 9.72

Bench note, PF3D7_0420300 AP2 domain 1 (GST-tagged): ATACATCAAGGACACACACACACACCCACACCCACA [CACACA_site8013] , gcPBM binding intensity (ln) reads 10.3

Bench note, PF3D7_0420300 AP2 domain 1 (GST-tagged): TTTTTTTTCTATGTGGTGCACATTATTTTTTTTTTT , gcPBM binding intensity (ln) reads 9.41

Bench note, PF3D7_0420300 AP2 domain 1 (GST-tagged): CAAGCACCCAGACACACACACACACCCACACCCACA [CACACA_site369] , gcPBM binding intensity (ln) reads 10.2

Bench note, PF3D7_0420300 AP2 domain 1 (GST-tagged): ACATCAAGCAGACACACACACACACCCACCCACCGA [CACACA_site371] , gcPBM binding intensity (ln) reads 10.2

Bench note, PF3D7_0420300 AP2 domain 1 (GST-tagged): CTTACCAAAAGACACACACACACAAGATATATAAAT [CACACA_site6964] , gcPBM binding intensity (ln) reads 10.2

Bench note, PF3D7_0420300 AP2 domain 1 (GST-tagged): CAGATAGACTTATATGCATGCATTCACATACCAACA [TGCATGCA_site163] , gcPBM binding intensity (ln) reads 9.27

Bench note, PF3D7_0420300 AP2 domain 1 (GST-tagged): TGTTCTTTGTTCAGCGCATGTAAAATAAAATAAAAT [TGCATGCA_site629] , gcPBM binding intensity (ln) reads 9.04

Bench note, PF3D7_0420300 AP2 domain 1 (GST-tagged): AAAATACCCGGACACACACACATATATATATATATT [CACACA_site6137] , gcPBM binding intensity (ln) reads 9.96

Bench note, PF3D7_0420300 AP2 domain 1 (GST-tagged): AATACCCAAGGACACACACACACATATATATATATA [CACACA_site8345] , gcPBM binding intensity (ln) reads 10.2

Bench note, PF3D7_0420300 AP2 domain 1 (GST-tagged): CAAGCACAGAAACACACACACACACCGACACAGACA [CACACA_site4359] , gcPBM binding intensity (ln) reads 10.2

Bench note, PF3D7_0420300 AP2 domain 1 (GST-tagged): GTAATACCCAAACACACACACATACCCATATATATA [CACACA_site5510] , gcPBM binding intensity (ln) reads 10

Bench note, PF3D7_0420300 AP2 domain 1 (GST-tagged): TATATAAAGATATATACACACAAAAAAAAAAAAAAA [CACACA_site6778] , gcPBM binding intensity (ln) reads 9.32

Bench note, PF3D7_0420300 AP2 domain 1 (GST-tagged): TATAAATAAATAAACACACACAAATAAAATAAAAAA [CACACA_site7623] , gcPBM binding intensity (ln) reads 10.1

Bench note, PF3D7_0420300 AP2 domain 1 (GST-tagged): CATACACGCGGACACACACACACACGCATATATAAC [CACACA_site6427] , gcPBM binding intensity (ln) reads 10.4

----------
Tested on: PF3D7_0420300 AP2 domain 1 (GST-tagged)
Experiment: gcPBM binding intensity (ln(normalized median fluorescence intensity)); higher = stronger DNA binding
The full ranking holds about 25,000 sequences; the median of “ln(normalized median fluorescence intensity)” is about 9.3, and the highest 2% start at about 10. The entries come from a sample that favours the highest values as a whole.
Consider the following sequences; for each one, report its gcPBM binding intensity (ln).
Give only the figure.

gcPBM binding intensity (ln) recorded for this sequence, TAAAAAAGAAAATATATACACACCAAAAAAAAAAAA [CACACA_site3146] , is 9.66

gcPBM binding intensity (ln) recorded for this sequence, AATAAAGCAATAAATACACACATATTTATATTTATA [CACACA_site7390] , is 9.56

gcPBM binding intensity (ln) recorded for this sequence, TAAATATATAAATACACACACACCAAAGCAATAGAT [CACACA_site5605] , is 10.2

gcPBM binding intensity (ln) recorded for this sequence, AAAAAGAAAATATATACACACCAAAAAAAAAAAAAA [CACACA_site5698] , is 9.46

gcPBM binding intensity (ln) recorded for this sequence, AGGATATATAATTAAGTGCATTAATTCAAAATAAAA [GTGCAC_site9702] , is 9.17

----------
Consider the following sequences; for each one, report its gcPBM binding intensity (ln).
System: PF3D7_0420300 AP2 domain 1 (GST-tagged)
Experiment: gcPBM binding intensity (ln(normalized median fluorescence intensity)); higher = stronger DNA binding
In all, about 25,000 sequences were measured (“ln(normalized median fluorescence intensity)”: median about 9.3, highest 2% from about 10 on). The sample holds the highest values, similar sequences and a random draw of the others, so the mix is not that of the screen.
Give only the figure.

gcPBM binding intensity (ln) recorded for this sequence, AAAAGATGCGCATACACACAGATGAATAACAAAAAA [CACACA_site6865] , is 9.74

gcPBM binding intensity (ln) recorded for this sequence, TTTAAAGTTTTATACACACACCAAAGTTATTCTAAT [CACACA_site6432] , is 9.56

gcPBM binding intensity (ln) recorded for this sequence, CACACCCACAGACACACACACACATATATATATATA [CACACA_site363] , is 10.2

gcPBM binding intensity (ln) recorded for this sequence, ACATCAAGAATTATTAAGAATACGGATAGATAAAAT [GTGCAC_negctrl_site261] , is 9.4

gcPBM binding intensity (ln) recorded for this sequence, CACACCCACAGACACACACACACATATATAATATAT [CACACA_site594] , is 10.2

gcPBM binding intensity (ln) recorded for this sequence, ATAAATACTAAAAATGAAATATAGAAAATAGCAATA [CACACA_negctrl_site501] , is 9.61

gcPBM binding intensity (ln) recorded for this sequence, AGCTAATATATCTTATATTCATATAAAAAAATATAT [CACACA_negctrl_site1786] , is 8.94

gcPBM binding intensity (ln) recorded for this sequence, AAAAATCATTTAAGAACACACAAATATTTCCATTAA [CACACA_site1488] , is 9.35

gcPBM binding intensity (ln) recorded for this sequence, TATTAATTCATTTTTTTTTTTTTTTTTTTTTTTTTT [CACACA_negctrl_site1215] , is 9.13

----------
Test system: PF3D7_0420300 AP2 domain 1 (GST-tagged)
Test: gcPBM binding intensity (ln(normalized median fluorescence intensity)); higher = stronger DNA binding
Whole data set: some 25,000 sequences, median “ln(normalized median fluorescence intensity)” near 9.3, cut for the highest 2% near 10. For the sample, the highest values were picked, then their nearest neighbours and some sequences at random.
measured-attribute: gcPBM binding intensity (ln)
Give only the figure.

Bench note, PF3D7_0420300 AP2 domain 1 (GST-tagged): AATAATGAATACACATGTACAAAAATTTTTCTTACT [XGTACX_site1962] , gcPBM binding intensity (ln) reads 9.41

Bench note, PF3D7_0420300 AP2 domain 1 (GST-tagged): ATATAAGAAAAGCACACACACACAAAAAAAAAAAAA [CACACA_site2827] , gcPBM binding intensity (ln) reads 10.1

Bench note, PF3D7_0420300 AP2 domain 1 (GST-tagged): AAAAAAAAGAAACACACACACATACACATAAATATA [CACACA_site3807] , gcPBM binding intensity (ln) reads 10.1

Bench note, PF3D7_0420300 AP2 domain 1 (GST-tagged): GATGTATTCATACATGCACACGTACATATTTAAATA [CACACA_site9299] , gcPBM binding intensity (ln) reads 9.34

Bench note, PF3D7_0420300 AP2 domain 1 (GST-tagged): TTTTTTTTTTTTTTTGCACACACCATATTTATAGAA [CACACA_site3310] , gcPBM binding intensity (ln) reads 9.46

Bench note, PF3D7_0420300 AP2 domain 1 (GST-tagged): TATATATATATATATATATATATATATATATATATT [CACACA_negctrl_site1440] , gcPBM binding intensity (ln) reads 8.8

Bench note, PF3D7_0420300 AP2 domain 1 (GST-tagged): AAAAAAAAAAAAGAAACACACATATATATATATATA [CACACA_site140] , gcPBM binding intensity (ln) reads 9.23

Bench note, PF3D7_0420300 AP2 domain 1 (GST-tagged): AAAAAAAAAAGACACACACACACAAATACATACACA [CACACA_site6472] , gcPBM binding intensity (ln) reads 10.1

Bench note, PF3D7_0420300 AP2 domain 1 (GST-tagged): AAAAAAAAAAGACACACACACACACTAATACATACA [CACACA_site6473] , gcPBM binding intensity (ln) reads 10.2

Bench note, PF3D7_0420300 AP2 domain 1 (GST-tagged): AGAAATTATAAATACCTACACACTTATCAAAATAAA [CACACA_site2264] , gcPBM binding intensity (ln) reads 9.55

Bench note, PF3D7_0420300 AP2 domain 1 (GST-tagged): TACACTTTTTTTTGTACACACTAAAAAGATTAACAA [CACACA_site6037] , gcPBM binding intensity (ln) reads 9.07

Bench note, PF3D7_0420300 AP2 domain 1 (GST-tagged): CATGCAATATTAAACACACACTCATATAGCACAATA [CACACA_site6182] , gcPBM binding intensity (ln) reads 9.73

Bench note, PF3D7_0420300 AP2 domain 1 (GST-tagged): TTCATTCTATAAAACACACAAATATTTTTGTATCCC [CACACA_site6458] , gcPBM binding intensity (ln) reads 9.2

Bench note, PF3D7_0420300 AP2 domain 1 (GST-tagged): ATAAAAAAAAGAAAAACACACACATATATATATATA [CACACA_site8243] , gcPBM binding intensity (ln) reads 9.61

Bench note, PF3D7_0420300 AP2 domain 1 (GST-tagged): AATTTTTATACGGATACACACAAAAAAAAATAAAAA [CACACA_site897] , gcPBM binding intensity (ln) reads 9.53

Bench note, PF3D7_0420300 AP2 domain 1 (GST-tagged): TATAAGCTTTCAATGTGTACATATTATTTTATTATT [XGTACX_site3988] , gcPBM binding intensity (ln) reads 9.44

Bench note, PF3D7_0420300 AP2 domain 1 (GST-tagged): AGAGATATAAGAAAAGCACACACACCCAAAAAAAAA [CACACA_site8917] , gcPBM binding intensity (ln) reads 9.92

Bench note, PF3D7_0420300 AP2 domain 1 (GST-tagged): ATACTAACATTTTTTTGTACATATAACTATAAAATA [XGTACX_site1033] , gcPBM binding intensity (ln) reads 9.16

Bench note, PF3D7_0420300 AP2 domain 1 (GST-tagged): AGAAAAAAAAAACACACACACACACCCTCAATATAA [CACACA_site39] , gcPBM binding intensity (ln) reads 10.1
